biological target: Nav1.7 (Homo sapiens); construct: host or cells: HEK293 or CHO; assay: cell-based; assay type: cell-based; details: peptide at 0.2 μM; second of two Nav1.7 columns (probably TP2); 100% = no change
Sequence (Q15858 whole entry): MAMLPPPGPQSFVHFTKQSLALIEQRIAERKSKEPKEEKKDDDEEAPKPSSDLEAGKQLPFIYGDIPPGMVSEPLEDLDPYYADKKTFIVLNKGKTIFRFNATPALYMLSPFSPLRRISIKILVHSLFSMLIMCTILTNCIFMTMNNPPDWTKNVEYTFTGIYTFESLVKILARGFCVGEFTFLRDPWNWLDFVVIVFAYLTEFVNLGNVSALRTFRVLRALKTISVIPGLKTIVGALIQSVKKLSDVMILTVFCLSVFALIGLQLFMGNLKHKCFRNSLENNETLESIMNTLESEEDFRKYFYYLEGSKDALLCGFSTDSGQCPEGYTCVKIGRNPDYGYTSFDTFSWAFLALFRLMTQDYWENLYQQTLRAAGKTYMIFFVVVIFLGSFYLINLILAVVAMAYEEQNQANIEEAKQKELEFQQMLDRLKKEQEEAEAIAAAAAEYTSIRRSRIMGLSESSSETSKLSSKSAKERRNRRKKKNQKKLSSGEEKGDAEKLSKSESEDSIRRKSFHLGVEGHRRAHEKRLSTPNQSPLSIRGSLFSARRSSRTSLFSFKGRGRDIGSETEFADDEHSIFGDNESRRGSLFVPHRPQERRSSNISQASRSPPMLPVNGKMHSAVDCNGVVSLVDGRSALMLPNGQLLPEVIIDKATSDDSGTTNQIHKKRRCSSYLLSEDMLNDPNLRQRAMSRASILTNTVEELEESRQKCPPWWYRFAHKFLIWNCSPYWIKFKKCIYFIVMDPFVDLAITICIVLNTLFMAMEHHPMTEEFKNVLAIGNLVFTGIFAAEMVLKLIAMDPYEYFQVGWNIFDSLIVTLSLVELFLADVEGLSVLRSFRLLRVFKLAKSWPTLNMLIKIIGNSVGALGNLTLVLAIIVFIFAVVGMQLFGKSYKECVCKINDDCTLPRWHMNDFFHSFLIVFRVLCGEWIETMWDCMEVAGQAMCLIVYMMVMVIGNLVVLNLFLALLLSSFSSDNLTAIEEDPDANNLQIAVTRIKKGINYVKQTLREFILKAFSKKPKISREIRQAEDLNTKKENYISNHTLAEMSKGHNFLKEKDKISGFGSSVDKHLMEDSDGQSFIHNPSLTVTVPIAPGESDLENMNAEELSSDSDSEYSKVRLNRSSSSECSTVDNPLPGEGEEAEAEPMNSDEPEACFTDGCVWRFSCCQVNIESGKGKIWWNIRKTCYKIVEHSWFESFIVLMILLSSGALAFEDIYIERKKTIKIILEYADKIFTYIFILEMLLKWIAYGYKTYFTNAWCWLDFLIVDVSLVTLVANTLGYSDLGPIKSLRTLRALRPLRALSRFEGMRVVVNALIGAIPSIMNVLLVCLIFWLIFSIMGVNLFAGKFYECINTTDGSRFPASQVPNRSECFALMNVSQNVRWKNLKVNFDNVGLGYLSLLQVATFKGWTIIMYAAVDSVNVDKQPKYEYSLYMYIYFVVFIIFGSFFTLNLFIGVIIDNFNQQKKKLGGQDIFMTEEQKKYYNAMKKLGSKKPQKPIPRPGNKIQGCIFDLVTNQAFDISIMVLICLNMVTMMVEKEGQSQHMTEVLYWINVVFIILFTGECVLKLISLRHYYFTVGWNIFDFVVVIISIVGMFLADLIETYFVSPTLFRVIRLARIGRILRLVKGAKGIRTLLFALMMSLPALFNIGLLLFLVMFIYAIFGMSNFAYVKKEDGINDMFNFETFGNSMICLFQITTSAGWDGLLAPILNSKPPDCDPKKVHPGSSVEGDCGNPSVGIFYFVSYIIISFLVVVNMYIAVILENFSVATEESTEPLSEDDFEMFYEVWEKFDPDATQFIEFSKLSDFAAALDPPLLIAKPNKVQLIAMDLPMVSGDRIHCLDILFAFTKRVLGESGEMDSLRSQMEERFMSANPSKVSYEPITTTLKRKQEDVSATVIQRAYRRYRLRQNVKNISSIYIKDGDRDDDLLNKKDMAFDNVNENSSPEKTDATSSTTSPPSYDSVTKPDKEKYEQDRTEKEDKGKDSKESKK
measurement_name: Activity of Nav1.7 with peptide, expressed as a percentage of the reference compound (%)
Your answer is read as %, so omit the unit and give the number.

Examples with answers:
substance | experimental_result
26 (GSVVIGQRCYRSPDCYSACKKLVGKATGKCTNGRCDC) [compound 26] | 74
36 (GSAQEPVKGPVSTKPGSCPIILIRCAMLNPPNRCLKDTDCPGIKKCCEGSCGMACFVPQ) [compound 36] | 118

Recorded Activity of Nav1.7 with peptide, expressed as a percentage of the reference compound for 34 (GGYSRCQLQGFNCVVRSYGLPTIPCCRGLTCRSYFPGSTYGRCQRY) [compound 34] , please?
104

Recorded Activity of Nav1.7 with peptide, expressed as a percentage of the reference compound for 19 (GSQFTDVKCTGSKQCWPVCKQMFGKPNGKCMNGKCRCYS) [compound 19] , please?
92

Recorded Activity of Nav1.7 with peptide, expressed as a percentage of the reference compound for 30 (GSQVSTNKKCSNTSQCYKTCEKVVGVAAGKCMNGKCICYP) [compound 30] , please?
125
